Source listed as paper PMC4336329.

hERG current change (%, negative = inhibition) at 10uM listing for selected molecules.
- target_or_test_system: human ether-à-go-go-related gene (hERG) potassium channel (human, UniProt Q12809);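 further: peak tail current of the secondary pulse compared with the same well before compound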
- Sequence (Q12809 whole entry, looked up): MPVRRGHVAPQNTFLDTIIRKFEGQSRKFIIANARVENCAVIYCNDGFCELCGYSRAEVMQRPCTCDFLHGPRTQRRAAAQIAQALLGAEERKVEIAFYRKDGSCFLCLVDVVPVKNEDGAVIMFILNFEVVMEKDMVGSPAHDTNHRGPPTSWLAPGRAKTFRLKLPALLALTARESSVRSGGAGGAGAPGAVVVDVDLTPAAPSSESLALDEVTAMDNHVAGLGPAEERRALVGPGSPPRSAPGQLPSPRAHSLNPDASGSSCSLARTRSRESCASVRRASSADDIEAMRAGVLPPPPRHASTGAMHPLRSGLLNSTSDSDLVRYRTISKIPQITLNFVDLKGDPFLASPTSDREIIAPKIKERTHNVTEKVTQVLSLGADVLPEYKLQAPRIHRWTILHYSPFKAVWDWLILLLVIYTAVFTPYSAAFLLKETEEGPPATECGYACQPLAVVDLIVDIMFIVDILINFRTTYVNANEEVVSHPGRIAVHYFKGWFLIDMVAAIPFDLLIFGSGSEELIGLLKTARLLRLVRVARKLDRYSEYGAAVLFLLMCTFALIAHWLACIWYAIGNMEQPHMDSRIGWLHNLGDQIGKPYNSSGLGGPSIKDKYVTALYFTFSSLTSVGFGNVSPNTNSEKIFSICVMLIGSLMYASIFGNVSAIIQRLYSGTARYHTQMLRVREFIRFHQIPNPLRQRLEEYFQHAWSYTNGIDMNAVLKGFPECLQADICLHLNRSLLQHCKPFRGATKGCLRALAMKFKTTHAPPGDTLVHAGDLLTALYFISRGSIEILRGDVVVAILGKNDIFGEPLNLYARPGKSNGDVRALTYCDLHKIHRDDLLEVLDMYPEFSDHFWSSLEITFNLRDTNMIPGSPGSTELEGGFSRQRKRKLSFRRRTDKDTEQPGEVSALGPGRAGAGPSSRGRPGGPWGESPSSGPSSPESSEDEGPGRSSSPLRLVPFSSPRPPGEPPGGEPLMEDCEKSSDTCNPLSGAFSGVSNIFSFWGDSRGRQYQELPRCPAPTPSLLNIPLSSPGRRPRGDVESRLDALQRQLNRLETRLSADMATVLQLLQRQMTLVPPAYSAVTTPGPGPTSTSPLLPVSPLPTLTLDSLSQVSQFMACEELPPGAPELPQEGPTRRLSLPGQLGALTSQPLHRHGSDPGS
- assay_info: primary screen, population patch clamp on CHO cells stably expressing hERG; higher = less effect of the substance
- Experimental: Briefly, Chinese hamster ovary (CHO) cells stably expressing the hERG channel were dislodged from tissue culture flasks and dispensed into PPC plates. […] During the recording, background leak currents were estimated by a 100 ms step to -80 mV from an initial holding potential of -70 mV and subtracted from the subsequent current measurement. The campaign was conducted in two phases using slight differences in recording protocol. […]
The whole screen tested about 310,000 compounds, of which about 14,000 (4.5%) showed an effect of 50% or more. The effect is printed as a negative number. The sample holds strong results, similar compounds and a random draw of the others, so the mix is not that of the screen.
property_label: hERG current change (%, negative = inhibition) at 10uM (%)

>  <molecule>
O=C(CCC1N=C2c3ccccc3N=C(SCc3ccccc3Cl)N2C1=O)NCc1ccco1 (centres unmarked)

>  <value_reported>
-32.4

$$$$
>  <molecule>
CN(C)C=NC(=O)c1ccc(N2CCN(c3ncc(C(F)(F)F)cc3Cl)CC2)cc1

>  <value_reported>
7.74

$$$$
>  <molecule>
Cc1ccc(S(=O)(=O)c2nc(-c3cccs3)oc2NCc2cccnc2)cc1

>  <value_reported>
-18.3

$$$$
>  <molecule>
COCCCN1C(=O)/C(=C\c2cccs2)C(C(=O)OC)=C1C

>  <value_reported>
-31.9

$$$$
>  <molecule>
CC(Sc1ccccc1)C(=O)N(CCC#N)Cc1cccnc1 (centres unmarked)

>  <value_reported>
6.64

$$$$
>  <molecule>
CNc1oc(-c2cccs2)nc1S(=O)(=O)c1ccccc1

>  <value_reported>
-18.7

$$$$
>  <molecule>
O=S(=O)(c1ccccc1)c1nc(-c2ccco2)oc1NCCCN1CCOCC1

>  <value_reported>
-6.01

$$$$
>  <molecule>
CCC(C)NC(=O)CSC1=Nc2ccccc2C2=NC(CC(=O)NCc3ccc(F)cc3)C(=O)N12 (centres unmarked)

>  <value_reported>
-11.4

$$$$
>  <molecule>
N#Cc1nc(-c2ccco2)oc1NCCCn1ccnc1

>  <value_reported>
-19.7

$$$$
>  <molecule>
NC(=O)CSC1=Nc2ccccc2C2=NC(CCC(=O)NCc3ccc(F)cc3)C(=O)N12 (centres unmarked)

>  <value_reported>
15.1

$$$$
>  <molecule>
O=S(=O)(c1ccccc1)c1nc(-c2cccs2)oc1NCCCn1ccnc1

>  <value_reported>
-75.1

$$$$
>  <molecule>
CC1CCCN(CC(O)COC(c2ccccc2)c2ccccc2)C1 (centres unmarked)

>  <value_reported>
-65

$$$$
>  <molecule>
COc1ccc(Cl)cc1NC(=O)CN(C)C(=O)c1ccc(COc2ccccc2)cc1

>  <value_reported>
13.5

$$$$
>  <molecule>
CC1CCCN(CC(O)COCc2ccccc2)C1.Cl (centres unmarked)

>  <value_reported>
-1.07

$$$$
>  <molecule>
Cc1ccc(C(OCC(O)CN2CCCCC2)c2ccccc2)cc1 (centres unmarked)

>  <value_reported>
-86.6

$$$$
>  <molecule>
O=C(CCC1N=C2c3ccccc3N=C(SCc3ccc(F)cc3)N2C1=O)NCc1ccco1 (centres unmarked)

>  <value_reported>
-70.9

$$$$
>  <molecule>
O=C(Nc1ccccc1[N+](=O)[O-])c1ccc(S(=O)(=O)N2CCCC2)cc1

>  <value_reported>
1.84

$$$$
>  <molecule>
O=S(=O)(c1ccccc1)c1nc(-c2cccs2)oc1NCc1cccnc1

>  <value_reported>
-50.5

$$$$
>  <molecule>
O=C(C1CCCN(S(=O)(=O)c2cnc[nH]2)C1)N1CCN(c2ccc(Cl)cc2)CC1 (centres unmarked)

>  <value_reported>
-35

$$$$
>  <molecule>
Cc1ccc(C)c(NC(=O)CN2C(=O)COc3ccc(S(=O)(=O)N4CCCC4)cc32)c1

>  <value_reported>
-0.517

$$$$
